system_tested: HLA-A*26:02
assay_explanation: IEDB peptide-MHC binding, purified MHC/direct/fluorescence; filed as Kd, often an IC50 or EC50 that approximates it; bounds were set here for any values at or beyond the usual limits of such assays
details: source organism: Mammarenavirus lassaense
observable: Kd

What value of Kd has been reported for the following sequence? GYAWIDFDI
≥ 20 µM

* * *

system_tested: HLA-A*02:16
assay_explanation: IEDB peptide-MHC binding, purified MHC/direct/fluorescence; filed as Kd, often an IC50 or EC50 that approximates it; bounds were set here for any values at or beyond the usual limits of such assays
details: source organism: Zaire ebolavirus
Kindly state Kd for each of the entries shown.

What value of Kd has been reported for the following sequence? WLQKIPLQW
≥ 20 µM

Then this sequence: YFTFDLTAL
≥ 20 µM

Then this sequence: LTDRELLLL
≥ 20 µM

* * *

system_tested: HLA-A*30:02
assay_explanation: IEDB peptide-MHC binding, purified MHC/competitive/radioactivity; filed as Kd, often an IC50 or EC50 that approximates it; bounds were set here for any values at or beyond the usual limits of such assays
details: source organism: Dengue virus 3 Singapore/8120/1995
pKd: −log10 of the molar value.
observable: pKd

What value of pKd has been reported for the following sequence? ILPEEQDQNY
≤ 4.43

* * *

system_tested: HLA-A*68:02
assay_explanation: IEDB peptide-MHC binding, purified MHC/competitive/radioactivity; filed as Kd, often an IC50 or EC50 that approximates it; bounds were set here for any values at or beyond the usual limits of such assays
details: source organism: Dengue virus 1 Brazil/97-11/1997
Threshold-based label: Kd under 6 nM gives 1 (yes), Kd not under 6 nM gives 0 (no).

Strictly below 6 nM in Kd? LTVAANEMGL
0 (no)

Then this sequence: TAYGVLFSGV
1 (yes)

Then this sequence: NTPEGIIPA
0 (no)

Then this sequence: MTATPPGSV
0 (no)

Then this sequence: LTAAVLMLV
0 (no)

* * *

system_tested: HLA-A*01:01
assay_explanation: IEDB peptide-MHC binding, purified MHC/direct/fluorescence; filed as Kd, often an IC50 or EC50 that approximates it; bounds were set here for any values at or beyond the usual limits of such assays
details: source organism: Yersinia pestis
pKd: −log10 of the molar value.
observable: pKd

What value of pKd has been reported for the following sequence? LTDEDKQNQ
≤ 4.70

* * *

system_tested: HLA-A*02:02
assay_explanation: IEDB peptide-MHC binding, purified MHC/competitive/radioactivity; filed as Kd, often an IC50 or EC50 that approximates it; bounds were set here for any values at or beyond the usual limits of such assays
details: source organism: Vaccinia virus WR
Kindly state Kd for each of the entries shown.
Entry rule: numbers only, all in nM.

What value of Kd has been reported for the following sequence? SIAMLKSKNI
1090

Then this sequence: FIVYGRSNA
6090

Then this sequence: FLPQIGGEAI
0.998

Then this sequence: RTMPNESRV
140

Then this sequence: VMDKNHAIFT
18700

Then this sequence: NMLDDFSAGA
308

Then this sequence: CVDHPFIYV
300

Then this sequence: IAIFNNRNL
9230

Then this sequence: MQLKIDKLT
7670

Then this sequence: MIIGEPIIVA
42

Then this sequence: RTIDAINKCV
10800

Then this sequence: TIAVSVYGAI
1550

Then this sequence: LVAEHRFENM
2050

Then this sequence: VVISVIFYFI
239

Then this sequence: VVIVENDNV
13200

Then this sequence: GAAITLVVI
6450

Then this sequence: VLQQNNSFII
665

Then this sequence: YVSSSYKDI
5040

Then this sequence: ITLILSNKLL
1090

Then this sequence: IADIRDKYM
63.5

Then this sequence: GLIVILFIM
13400

Then this sequence: TIAGGVCYYL
0.036

Then this sequence: SLIYYQNEVT
77.2

Then this sequence: DLLFNEKLKV
357

Then this sequence: KLVETGFVI
13200

Then this sequence: YAVLSEYET
1780

Then this sequence: CQCTVQEFI
2050

Then this sequence: PLSINVSGV
1120

Then this sequence: PVLEKKVCAI
541

Then this sequence: KVIKLVKSL
578

Then this sequence: GARVIWMDA
4600

Then this sequence: IMETIDPVYI
28.6

Then this sequence: DVSVSVGTGI
17900

Then this sequence: TILATLNTL
238

Then this sequence: ILATLNTLI
0.413

Then this sequence: KVYLSTFNM
482

Then this sequence: KIVQLPKRGV
4120

Then this sequence: EMKYALINL
3060

Then this sequence: GLSASDVDM
497

Then this sequence: KVEKYLPEV
1050

Then this sequence: WLKDSAIMVA
14.8

Then this sequence: GTKGKLYIA
1720

* * *

system_tested: HLA-A*02:16
assay_explanation: IEDB peptide-MHC binding, purified MHC/direct/fluorescence; filed as Kd, often an IC50 or EC50 that approximates it; bounds were set here for any values at or beyond the usual limits of such assays
details: source organism: Encephalitozoon cuniculi GB-M1
pKd: −log10 of the molar value.
observable: pKd

What value of pKd has been reported for the following sequence? MPFDPSELV
≤ 4.70

* * *

system_tested: HLA-A*03:01
assay_explanation: IEDB peptide-MHC binding, purified MHC/competitive/radioactivity; filed as Kd, often an IC50 or EC50 that approximates it; bounds were set here for any values at or beyond the usual limits of such assays
details: source organism: Mammarenavirus mopeiaense
observable: pKd
Hey, just a heads up that pKd is the negative log base 10 of the concentration in molar.

Form field - read-out: pKd; system: HLA-A*03:01; submitted item: KCFGNTAIAK
6.71

* * *

system_tested: HLA-B*15:01
assay_explanation: IEDB peptide-MHC binding, purified MHC/competitive/fluorescence; filed as Kd, often an IC50 or EC50 that approximates it; bounds were set here for any values at or beyond the usual limits of such assays
details: source organism: Escherichia coli
observable: pKd
Hey, just a heads up that pKd is the negative log base 10 of the concentration in molar.

Form field - read-out: pKd; system: HLA-B*15:01; submitted item: ITDYIVGYY
5.62

* * *

system_tested: HLA-A*26:02
assay_explanation: IEDB peptide-MHC binding, purified MHC/direct/fluorescence; filed as Kd, often an IC50 or EC50 that approximates it; bounds were set here for any values at or beyond the usual limits of such assays
details: source organism: West Nile virus strain PTRoxo
observable: Kd

What value of Kd has been reported for the following sequence? SGIDTNAYY
≥ 20 µM

* * *

system_tested: HLA-A*02:03
assay_explanation: IEDB peptide-MHC binding, purified MHC/direct/fluorescence; filed as Kd, often an IC50 or EC50 that approximates it; bounds were set here for any values at or beyond the usual limits of such assays
details: source organism: Encephalitozoon cuniculi GB-M1
pKd: −log10 of the molar value.
observable: pKd

What value of pKd has been reported for the following sequence? MPFDPSELV
≤ 4.70

* * *

system_tested: HLA-B*58:01
assay_explanation: IEDB peptide-MHC binding, purified MHC/competitive/radioactivity; filed as Kd, often an IC50 or EC50 that approximates it; bounds were set here for any values at or beyond the usual limits of such assays
details: source organism: Dengue virus 1 Singapore/S275/1990
observable: Kd (nM)
Entry rule: numbers only, all in nM.

What value of Kd has been reported for the following sequence? ASSVLLWMAS
690

* * *

system_tested: HLA-A*24:02
assay_explanation: IEDB peptide-MHC binding, purified MHC/competitive/fluorescence; bounds were set here for any values at or beyond the usual limits of such assays
details: source organism: Zaire ebolavirus
observable: IC50

What value of IC50 has been reported for the following sequence? AFLILPQAK
26.9 µM

Then this sequence: IQNVPGPHR
6.86 µM

Then this sequence: FVTLDGQQF
17.6 µM

Then this sequence: ARLLNLSGV
32.8 µM

Then this sequence: YVQLESRFT
≥ 203 µM

Then this sequence: SLPKTSGHY
47.5 µM

Then this sequence: AENTNTSKS
≥ 534 µM

Then this sequence: QKIWMAPSL
≥ 92.4 µM

Then this sequence: KEYTYPDSL
≥ 184 µM

Then this sequence: HMMVIFRLM
0.83 µM

Then this sequence: QESADSFLL
≥ 138 µM

Then this sequence: TTGKLIWKV
62.7 µM

* * *

system_tested: HLA-A*32:01
assay_explanation: IEDB peptide-MHC binding, purified MHC/competitive/radioactivity; filed as Kd, often an IC50 or EC50 that approximates it; bounds were set here for any values at or beyond the usual limits of such assays
details: source organism: Vaccinia virus WR
observable: pKd
Hey, just a heads up that pKd is the negative log base 10 of the concentration in molar.

Form field - read-out: pKd; system: HLA-A*32:01; submitted item: LTFKACDHI
4.73

Then this sequence: KLGNLLLLI
9.15

Then this sequence: FIRYRMHPM
4.84

Then this sequence: VISNLVLSY
6.09

Then this sequence: MTCGQPLSL
8.25

Then this sequence: RTISESNTI
6.02

Then this sequence: KSSPETQQM
6.33

Then this sequence: KSIEQHPVV
5.72

Then this sequence: SIYRMSYQF
9.10

Then this sequence: ALNHLVLSL
7.38

Then this sequence: LLYMFPNLF
7.05

Where do these numbers come from? They come from the Immune Epitope Database (IEDB).
